target: monomeric HLA-A2:HPV16E7(11-19) peptide complex, soluble (human; human papillomavirus type 16); assay: SPR 25C, mAb captured
koff by entry:
endpoint_label: koff (s⁻¹)

- binder: "H4sH17363N (antibody, V domains shown) VH: EVQLLESGGGLVQPGGSLRLSCAASGFTFSSYAMTWVRQAPGMGLEWVSVISGSGSETYYADSVKGRFTISRDNSKNTLYLQMNSLRAEDTAVYYCVKDSSYRSSSRAYYYYGMDVWGLGTTVTVSS VL: DIQMTQSPSSLSASVGDRVTITCRASQSISSYLNWYQQKPGKAPKLLIYAVSILQSGVPSRFSGSGSGTDFTLTINSLQPEDFATYSCQQTYSTPPITFGQGTRLEIKR"
  value: 0.00154
- binder: "H4sH17675P (antibody, V domains shown) VH: EVQLVESGGGLVQPGASLRLSCEASGFTLSFYAMHWVRQAPGKELEYVSGISGNGNSIYYRDSVKGRFTISRDNSKNTLYLQMGSVGAEDMAVYYCARSYSSGNSYYYYYGMDVWGQGTTVTVSS VL: DIQMTQSPSSLSASVGDRITITCRASQSISSYLNWYQQKPGKAPNLLIYAASNLQSGVPSRFSGSGSGTDFTLTISSLQPEDFATYYCQQSYSTPPITFGQGTRLEIKR"
  value: 0.00138
- binder: "H4sH17672P (antibody, V domains shown) VH: EVQLVESGGGLVQPGASLRLSCEASGFTLSFYSMHWVRQAPGRELEYVSGISGNGNNIYYRDSVKGRFTISRDNSKNTLNLQMGSVRAEDMGVYYCARSYSSGNSYNYYYGMDVWGQGTTVTVSS VL: DIQMTQSPSSLSASVGDRVTITCRASQTISSYLNWYQQKPGKAPKLLIYAVSNLQSGVPSRFSGSGSGTDFTLTISSLQPEDFATYYCQQSYSTPPITFGQGTRLEIK"
  value: 0.000819
- binder: "H4sH21079P (antibody, V domains shown) VH: EVQLVESGGGLVKPGGSLRLSCAASGFTFSNAWMSWVRQAPGKGLEWVGRIKTRADGGTTDYAAPVKGRFTISRDDSKNTLYLQLNSLKTEDTAVYYCTSHNWNYEDFDYWGQGTLVTVSS VL: DIQMTQSPSSLSASVGDRVTITCRASQSISNYLNWYQQKPGKAPKLLIYAASSLQSGVPSRFSGSGSGTDFTLTISSLQPEEFATYYCQQSYSIPYTFGQGTKLEIK"
  value: 0.0109
- binder: "H4sH17364N (antibody, V domains shown) VH: EVQLLESGGGLVQPGGSLRLSCAASGFTFSSYAMTWVRQAPGKGLEWVSVISGSGSETYYADSVKGRFTISRDNSKNTLYLQMNSLRAEDTAVYYCVKDSSYRSSSRAYYYYGMDVWGLGTTVTVSS VL: DIQMTQSPSSLSASVGDRVTITCRASQSISSYLNWYQQKPGKAPKLLIYAVSILQSGVPSRFSGSGSGTDFTLTISSLQPEDFATYSCQQTYSTPPITFGQGTRLEIKR"
  value: 0.00157
